As shown below, each of these molecules has a reported Screen- Human/No Protein value.
# ASSAY_TARGET: human vWF A1 domain (SEQ ID NO 5) (Homo sapiens, UniProt P04275, T1381A)
# Sequence (P04275 with tags, fused parts or gaps T1381A): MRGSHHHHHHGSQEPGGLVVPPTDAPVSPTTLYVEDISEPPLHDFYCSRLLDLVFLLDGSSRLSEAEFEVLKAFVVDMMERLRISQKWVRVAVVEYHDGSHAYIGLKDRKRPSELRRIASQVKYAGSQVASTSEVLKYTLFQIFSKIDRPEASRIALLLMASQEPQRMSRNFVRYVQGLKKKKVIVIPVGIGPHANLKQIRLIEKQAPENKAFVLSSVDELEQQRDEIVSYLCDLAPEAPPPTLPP
# TEST_DETAILS: 3-point dot blot screen, human vWF A1 domain
# Assay type: binding
# CONDITION_DESCRIPTION: DNA SELEX 1 aptamers; 100 nM human vWF A1 domain; ratio of fraction bound with target to without

MOLECULE	Screen- Human/No Protein
AMX199.G5: DNA SELEX 1 aptamer clone (nucleic acid, DNA, backbone not given here, DNA SELEX 1 aptamer clone) DNA: CTACCTACGATCTGACTAGCGAAACACTAGGTTGGTTAGGATTGGTGTGTTCCCGCCCTGCTTACTCTCATGTAGTTCC	1.41
AMX200.D1: DNA SELEX 1 aptamer clone (nucleic acid, DNA, backbone not given here, DNA SELEX 1 aptamer clone) DNA: CTACCTACGATCTGACTAGCGGAATGAGAGTGCTGATGGATTGCTCAGGTCTACTGGCTGCTTACTCTCATGTAGTTCC	1.26
AMX199.G1: DNA SELEX 1 aptamer clone (nucleic acid, DNA, backbone not given here, DNA SELEX 1 aptamer clone) DNA: CTACCTACGATCTGACTAGCGAAACACTAGGTTGGTTAGGATTGGTGTGTTCCCGCTTTGCTTACTCTCATGTAGTTCC	1.19
AMX200.F11: DNA SELEX 1 aptamer clone (nucleic acid, DNA, backbone not given here, DNA SELEX 1 aptamer clone) DNA: CTACCTACGATCTGACTAGCGGAATGAGGATGCTGGTGGATTGCTCAGGTCTGCTGGCTGCTTACTCTCATGTAGTTCC	3.83

Each recorded value in this set is attributed to patent US7998940B2.
